Experiment: NCI Yeast Anticancer Drug Screen. Data for the mlh1 rad18 strain (AID 175)
Settings: S. cerevisiae mlh1 rad18 strain growth inhibition; at 5.0 µM (retest, dose inferred, filed as 0.5)
Protocol: Growth inhibition of yeast strains with defined genetic alterations is measured as a screen for potential anti-cancer activity. Selected strains with alterations in DNA damage repair or cell cycle control were exposed to compounds and growth inhibition was measured relative to vehicle treated controls. The strain used in this assay is mlh1 rad18
Compounds without any hit were thinned out: in the full panel of roughly 79,000, 15% have a hit. Active and inactive are the calls of the source. Cut-off read from the data, not from the text of the source: active = growth inhibition above about 70%; inactive = the rest.
A correct response names exactly one class from active, inactive

Q: Call for entry `CC(=O)Nc1ccc(-c2ccccc2)cc1[N+](=O)[O-]` :
Ans: inactive

Q: Query: recorded result category for `Cc1cccc(C)c1N=Nc1c(C)nc(N)nc1-c1ccccc1` in this test
Ans: inactive

Q: Identify the outcome logged in this assay for the molecule shown: `NC(=S)N/N=C1\CCCCc2ccccc21`
Ans: inactive

Q: I would be grateful if you could indicate the recorded call for `Nc1ncnc(N2CCOCC2)c1N` .
Ans: inactive

Q: Tell me the assay call for [O-][N+]1=C2CCC/C(=N/O)C2(O)C2CCCCC21N1CCOCC1 (stereo unspecified) please.
Ans: inactive

Q: For `COc1cc(C(=O)CBr)c2ccc(Cl)cc2n1` , which call appears in the assay record?
Ans: active

Q: Hi, sorry to bother you, what did the test record for CC(C)(Cl)C(Cl)CC/C(CBr)=C(\Cl)CBr (stereo unspecified) ?
Ans: inactive

Q: Record request — test call for `CN(C)CCCN1c2ccc3ccccc3c2Sc2cccc(Cl)c21`
Ans: inactive

Q: Check the results log: what was the call for `COC(=O)[C@]1(C)CCC[C@]2(C)c3ccc(C(C)C)cc3C(=O)C[C@@H]12` ?
Ans: inactive

Q: Per the assay record, what outcome was assigned to `COc1cc(/C=C/C(=O)c2ccc3ccccc3c2)cc(OC)c1OC` ?
Ans: inactive

Q: // param item: `NC(=O)SCC(=O)Nc1ccccc1` ; yields the recorded call
Ans: inactive

Q: Give the logged outcome of this assay for the following molecule: CCN1C(/C=C/c2ccc(O)c3ncccc23)CCC2CC(C)CCC21 (stereo unspecified)
Ans: inactive

Q: Per the records of this test, what outcome belongs to `CCOC(=O)Oc1ccc(C)cc1[N+](=O)[O-]` ?
Ans: inactive

Q: Check the results log: what was the call for `CC1=C(C(=O)Nc2ccccc2)C(c2ccc(Cl)c(Cl)c2)C(C(=O)Nc2ccccc2)=C(C)N1` ?
Ans: inactive

Q: How did this test come out for `Cc1nc2c(Cl)nc(Cl)nc2s1` ?
Ans: inactive

Q: For `CN(NC(=O)/C(=C/c1cc(Cl)cc(Cl)c1O)NC(=O)c1ccccc1)c1cnn(-c2ccccc2)c(=O)c1Cl` , which call appears in the assay record?
Ans: inactive

Q: Recorded test call requested for `N#CCc1nc2c(s1)C(=O)c1ccccc1C2=O`
Ans: inactive

Q: For `CN1CC[C@@H](c2ccccc2)[C@@H](O)C1` , what call appears in the results of this test?
Ans: inactive

Q: I'd appreciate the recorded outcome for `COC(=O)C(=O)N(c1cc(C)ccc1C)c1cc(C)ccc1C` from this test.
Ans: inactive

Q: Could you kindly confirm the outcome this assay logged for O=C1CC(O)CC(=O)C1=C(O)CCCCCCCCCCc1ccccc1 (stereo unspecified) ?
Ans: inactive

Q: Recorded call for O=[N+]([O-])c1ccc(N2CCCC(n3cccc3)C2)c([N+](=O)[O-])c1 (stereo unspecified) ?
Ans: inactive

Q: Record request — test call for `COc1ccc(CN2C(=O)C(Cl)=C(Cl)C2=O)c(OC)c1`
Ans: inactive

Q: Returns: the outcome recorded for `C#Cc1cccc(N=Cc2cc(Cl)cc(Cl)c2O)c1` in this assay.
Ans: inactive

Q: Record lookup: outcome of this test for N#CN1CCCC(O)c2sc3ccccc3c2CC1 (stereo unspecified) ?
Ans: inactive

Q: How was `CS(=O)(=O)OCCN(CCOS(C)(=O)=O)c1ccc(C=Nc2cc(Br)c(O)c(Br)c2)c(Cl)c1` classified in this test?
Ans: inactive

Q: I would be grateful if you could indicate the recorded call for `Cc1ccc(NC(Nc2ccc(C)cc2C)=C(/C=C(\Cl)[N+](=O)[O-])[N+](=O)[O-])c(C)c1` .
Ans: active

Q: Tell me the recorded outcome of this test for `CCCCN(CCCC)CCCCCCNc1cc(OC)cc2cccnc12` .
Ans: inactive

Q: Please indicate how the test categorized `Nc1ncnc2c1c(-c1ccc(Cl)cc1)cn2-c1ccccc1` .
Ans: inactive

Q: For `CCCCCCC[n+]1ccc(C(=O)c2ccccc2)cc1` , what call appears in the results of this test?
Ans: active

Q: # outcome recorded in this test, key = `N=c1n(CC(=O)NC23CC4CC(CC(C4)C2)C3)c2ccccc2n1CC(=O)NC12CC3CC(CC(C3)C1)C2`
Ans: inactive

Q: Answer briefly: the call reported for `O=c1[nH][nH]c(=O)c2c1nc(SCc1ccccc1)n2Cc1ccccc1` in this assay.
Ans: inactive

Q: Please share the test call associated with CCC1CCC(CC)C1O (stereo unspecified) .
Ans: inactive

Q: Recorded call for CCN(C(=O)c1ccccc1C)C(c1ccccc1)P(=O)(c1ccccc1)c1ccccc1 (stereo unspecified) ?
Ans: inactive

Q: // return assay outcome for `Cc1cc(=Nc2ccc3c(c2)c(N)cc(C)[n+]3C)nc(N)n1C`
Ans: active

Q: // return assay outcome for OC1CC2OC2C1O (stereo unspecified)
Ans: inactive

Q: Hi, do you know how `O=c1c2ccccc2c2ccccc2c(=O)n1-c1cc2c3ccccc3ccc2c2ccccc12` came out in this test?
Ans: inactive

Q: How was `CC(=O)Oc1ccccc1C(=O)/C=C/c1ccccc1` classified in this test?
Ans: inactive

Q: Which outcome did this test record for the molecule `Nc1ncnc2c1c(-c1ccccc1)cn2-c1ccc(I)cc1` ?
Ans: inactive

Q: Which result was noted for this molecule in the test: `COc1cccc(/C=N/NC(=O)c2c(-c3ccccc3)noc2C)c1O`
Ans: inactive

Q: Short answer needed: outcome of this test for `COc1ccc(Cc2nc3ccc(Cl)cc3[nH]2)cc1` ?
Ans: inactive

Q: Would you mind telling me which call this test gave `C=CCOc1ccc(-c2ccccc2)cc1C(=O)NC` ?
Ans: inactive

Q: What classification did CC(=O)OCC1OC(OC2C=C(O[Si](C)(C)C)C[C@H]3C(=O)C=CC(=O)[C@@H]23)C(OC(C)=O)C(OC(C)=O)C1OC(C)=O (stereo partly specified) end up with in this test?
Ans: inactive

Q: What did the test return for `C[C@]12CC[C@H]3[C@@H](CCC4=CC(=O)CC[C@@]43C)[C@@H]1CC[C@@H]2C(=O)C=O` ?
Ans: inactive

Q: Just curious, what result did `C=C(CN(C)C)C(=O)c1ccc(C)cc1C` get here?
Ans: active

Q: What is the recorded call for this molecule in the test? `O=C1C(c2c[nH]c3ccccc23)=Nc2ccc(Br)cc21`
Ans: inactive

Q: Could you kindly confirm the outcome this assay logged for `Cc1ccccc1Nc1nc(-c2ccccc2)nc(N)c1N=O` ?
Ans: inactive

* * *

Assay: NCI Yeast Anticancer Drug Screen. Data for the cln2 rad14 strain (AID 165)
Settings: S. cerevisiae cln2 rad14 strain, at 50.0 µM (retest, dose inferred, filed as 5.0)
This is part of a sample that, as a whole, favours compounds with a hit. Of some 79,000 tested, about 15% had one in any assay. Activity calls are given as the source filed them. No stated cut-off is given here; in the data, active means growth inhibition above about 70%; inactive means the rest.
Pick from active, inactive when you respond.

Q: Hi, do you know how `O=C(CCl)N(Cc1ccccc1)Cc1ccccc1` came out in this test?
Ans: active

Q: Test call, this compound: `COc1ccc(/C=N/NS(=O)(=O)c2ccc(C)cc2)cc1`
Ans: active

Q: Answer briefly: the call reported for `C/C(=N\NC(=S)NCCCNC(=S)N/N=C(\C)c1ccccn1)c1ccccn1` in this assay.
Ans: active

Q: Would you mind telling me which call this test gave `Oc1c(Br)cc(Br)cc1C=Nc1ccc(Br)cc1` ?
Ans: active

Q: Assay outcome for `CCN(CC)P(=S)(c1ccccc1CCP(=S)(c1ccccc1)c1ccccc1)N(CC)CC` : what was it?
Ans: inactive

Q: Please state the recorded outcome for this compound: `NCc1ccccc1-c1c2nc(c(-c3ccccc3CN)c3ccc([nH]3)c(-c3ccccc3CN)c3nc(c(-c4ccccc4CN)c4ccc1[nH]4)C=C3)C=C2`
Ans: inactive

Q: Give the logged outcome of this assay for the following compound: `Clc1ccc(SSN2CCOCC2)cc1`
Ans: inactive

Q: What outcome does the record of this test show for `CC/C(=C(\CC)c1ccc(O)c(CN(CCO)CCO)c1)c1ccc(O)cc1` ?
Ans: inactive

Q: Identify the outcome logged in this assay for the compound shown: `O=C1/C(=C\c2ccc(Cl)cc2Cl)Sc2scc(-c3cccc([N+](=O)[O-])c3)[n+]21`
Ans: active

Q: # lookup: test call for `N#CC(=C1C=CC(=NOC(=O)Nc2ccccc2)C=C1)c1ccccc1`
Ans: active

Q: I would be grateful if you could indicate the recorded call for CC(C)C12CCC3(CCC4C(C)(C(=O)O)CCCC4(C)C3C1)C(CN)C2 (stereo not given) .
Ans: active

Q: Entry `C#CCNC(C)(C)C` : call = ?
Ans: inactive

Q: I would be grateful if you could indicate the recorded call for `CCOC(=O)Cc1nc2ccccc2s1` .
Ans: active

Q: Per the records of this test, what outcome belongs to `O=c1c2cc(Cl)ccc2[nH]c2cc(O)cc(O)c12` ?
Ans: inactive

Q: Hi, do you know how CC(=O)OC1CCC2(C)C3CCC4(C)C(CCC4(Br)C(=O)CBr)C3CC(Br)C2(Br)C1 (stereo not given) came out in this test?
Ans: inactive

Q: What did this assay record as the result for `S=C(Nc1ccccn1)c1ccccn1` ?
Ans: inactive

Q: Fill in: this test's call for `O=C(O)c1ccc(NCc2c(O)ccc3ccccc23)cc1` is ___
Ans: inactive

Q: Look up the recorded call for COc1ccc(C2c3cc4c(cc3OC(O)C2C)OCO4)c(OC)c1 (stereo not given) in this test.
Ans: active

Q: Hi, sorry to bother you, what did the test record for C1CCC(C2CCC(N3CCCCC3)CC2)CC1 (stereo not given) ?
Ans: inactive

Q: Tell me the assay call for `CCCCCCCCCCCCCCCC[N+](C)(C)CC(=O)O` please.
Ans: active

Q: Called result for `CC(=O)N(/C=C\c1sc2ccccc2[n+]1C)c1ccccc1`
Ans: inactive

Q: Look up the recorded call for `O=C/C(Br)=C\c1ccccc1` in this test.
Ans: active

Q: Hi, do you know how `COc1ccc(SC2=C(N(C)C)C(=O)c3ccccc3C2=O)cc1` came out in this test?
Ans: active

Q: Recorded test call requested for `[O-][n+]1onc2ncccc21`
Ans: active

Q: Identify the outcome logged in this assay for the compound shown: `CN=c1sc2c(n1C)C(=O)c1ccccc1C2=O`
Ans: inactive

Q: Please let me know the test result on file for `CCOC(=O)Cc1cc(=O)oc2c(CN3CCN(c4ccc(C)cc4)CC3)c(O)ccc12` .
Ans: active

Q: Recorded test outcome, item `O=c1cccccc1[O-].O=c1cccccc1[O-].O=c1cccccc1[O-].[La+3]`
Ans: inactive

Q: Query: recorded result category for COc1cccc2c1C(=O)c1c(O)c3c(c(O)c1C2=O)CC(O)(C(C)=O)CC3OC1CC(NCC2(O)OCC(O)C2O)C(O)C(C)O1 (stereo not given) in this test
Ans: active

Q: Kindly provide the recorded test outcome for the following compound: `O=C(CCl)NC(=O)N(/N=C/c1ccco1)c1ccccc1`
Ans: inactive

Q: For this compound, state the assay outcome: `CN(C)c1ccc2c(NCCCCCCNc3ccnc4cc(N(C)C)ccc34)ccnc2c1`
Ans: active

Q: Query: recorded result category for COc1cccc2c1C(=O)c1c(O)c3c(c(O)c1C2=O)CC(O)(C(C)=O)CC3OC1CC(NCC2(O)OCC(O)C(O)C2O)C(O)C(C)O1 (stereo not given) in this test
Ans: active

Q: Kindly provide the recorded test outcome for the following compound: `Cc1ccc(C(=O)CC(O)(C(F)(F)F)C(F)(F)F)cc1[N+](=O)[O-]`
Ans: active

Q: Assay outcome for `C=CCCCCn1c2ccccc2c2c(C)c3c[n+](C)ccc3c(C)c21` : what was it?
Ans: active

Q: Field: outcome | Entry: `O=Cc1[nH]c(=S)[nH]c(=O)c1Cc1cccc2ccccc12`
Ans: active

Q: # lookup: test call for `Clc1ccccc1CN1COc2c(cc(Cl)c3cccnc23)C1`
Ans: active

Q: I would be grateful if you could indicate the recorded call for `Cc1cccc(/C=N\OCCc2ccccc2)n1` .
Ans: inactive

Q: Field: outcome | Entry: `CCC(CC)C(=O)O.[Ag]`
Ans: active

Q: Hi, sorry to bother you, what did the test record for Oc1ccc(C2Oc3ccccc3C=C2c2ccccc2)cc1 (stereo not given) ?
Ans: active

Q: Given `CCN(CC)CCCCCCNc1cc(C)cc2cccnc12` , state the outcome it received in this test.
Ans: inactive

Q: Given CC1C(c2ccc(Cl)cc2)c2cc3c(cc2OC1N1CCOCC1)OCO3 (stereo not given) , state the outcome it received in this test.
Ans: inactive

Q: Hey, what did the test say about `O=[N+]([O-])C(=C(Nc1ccccc1)Nc1ccccc1)C(Cl)=C(Cl)Cl` ?
Ans: active

Q: Identify the outcome logged in this assay for the compound shown: `Cn1ncc2c(Nc3cccc(Cl)c3)nc(Nc3cccc(Cl)c3)nc21`
Ans: active

Q: Just curious, what result did `O=P(O)(CN1CCN(CP(=O)(O)c2ccccc2)CCN(CP(=O)(O)c2ccccc2)CC1)c1ccccc1` get here?
Ans: inactive

Q: # outcome recorded in this test, key = NCC(O)CSc1ccc(Cl)c(Cl)c1 (stereo not given)
Ans: inactive

Q: Could you check what this test reported for `c1ccc(CN2CCC3(CC2)SSC2(CCN(Cc4ccccc4)CC2)S3)cc1` ?
Ans: inactive
